Catalogue of molecules with associated Henry solubility constant Hcp
Experiment: Henry solubility constant Hcp at 298.15 K (mol/(m3 Pa))
Settings: reference: Hiatt (2013)

{"Molecule": "ClCC(Cl)Cl [1,1,2-trichloroethane]", "Henry solubility constant Hcp": 0.014}
{"Molecule": "[2H]c1c([2H])c([2H])c(Br)c([2H])c1[2H] [bromobenzene-d5]", "Henry solubility constant Hcp": 0.0065}
{"Molecule": "[2H]c1c([2H])c([2H])c2c(C([2H])([2H])[2H])c([2H])c([2H])c([2H])c2c1[2H] [1-methylnaphthalene-d10]", "Henry solubility constant Hcp": 0.046}
{"Molecule": "C=CC#N [2-propenenitrile]", "Henry solubility constant Hcp": 0.12}
{"Molecule": "Fc1cc(F)c(F)c(F)c1F [pentafluorobenzene]", "Henry solubility constant Hcp": 0.00075}
{"Molecule": "ClC(Cl)Br [bromodichloromethane]", "Henry solubility constant Hcp": 0.0052}
{"Molecule": "ClCC(Cl)(Cl)Cl [1,1,1,2-tetrachloroethane]", "Henry solubility constant Hcp": 0.0048}
{"Molecule": "Cc1ccc(C(C)C)cc1 [1-methyl-4-(1-methylethyl)-benzene]", "Henry solubility constant Hcp": 0.0018}
{"Molecule": "BrCBr [dibromomethane]", "Henry solubility constant Hcp": 0.012}
{"Molecule": "[2H]C([2H])(O)C([2H])([2H])Cl [2-chloroethanol-d4]", "Henry solubility constant Hcp": 5}

###

Reported Henry solubility constant Hcp by item:
Assay: Henry solubility constant Hcp at 298.15 K (mol/(m3 Pa))
Conditions: reference: Hiatt (2013)

{"Molecule": "ClC(Cl)=C(Cl)Cl", "Henry solubility constant Hcp": 0.00099}
{"Molecule": "COC(C)=O [methyl ethanoate]", "Henry solubility constant Hcp": 0.12}
{"Molecule": "Brc1ccccc1", "Henry solubility constant Hcp": 0.006}
{"Molecule": "CCCCC(C)CO (stereo not drawn)", "Henry solubility constant Hcp": 0.69}
{"Molecule": "[2H]c1c([2H])c([2H])c(Cl)c([2H])c1[2H]", "Henry solubility constant Hcp": 0.0036}
{"Molecule": "[2H]C([2H])([2H])C([2H])(Cl)C([2H])([2H])Cl (stereo not drawn)", "Henry solubility constant Hcp": 0.0036}
{"Molecule": "ClC(Cl)(Cl)Cl", "Henry solubility constant Hcp": 0.0005}
{"Molecule": "ClC(Br)Br", "Henry solubility constant Hcp": 0.011}
{"Molecule": "ClCC(Br)CBr (stereo not drawn)", "Henry solubility constant Hcp": 0.097}
{"Molecule": "C[13C](C)=O [propanone-2-13C]", "Henry solubility constant Hcp": 0.31}
{"Molecule": "[2H]c1c([2H])c([2H])c(C(C)=O)c([2H])c1[2H]", "Henry solubility constant Hcp": 2.3}
{"Molecule": "ClC/C=C\\CCl [(Z)-1,4-dichloro-2-butene]", "Henry solubility constant Hcp": 0.03}
{"Molecule": "[2H]c1c([2H])c([2H])c([N+](=O)[O-])c([2H])c1[2H]", "Henry solubility constant Hcp": 0.85}
{"Molecule": "[2H]c1c([2H])c(Cl)c(Cl)c(Cl)c1[2H]", "Henry solubility constant Hcp": 0.015}
{"Molecule": "CC(Cl)CCl (stereo not drawn)", "Henry solubility constant Hcp": 0.0043}
{"Molecule": "Clc1ccc(Cl)cc1", "Henry solubility constant Hcp": 0.0058}
{"Molecule": "ClCBr", "Henry solubility constant Hcp": 0.0066}
{"Molecule": "ClC(Cl)C(Cl)Cl", "Henry solubility constant Hcp": 0.033}
{"Molecule": "Fc1ccc(Br)cc1", "Henry solubility constant Hcp": 0.0053}
{"Molecule": "C1CCCCC1", "Henry solubility constant Hcp": 0.00032}
{"Molecule": "ClC(Cl)=C(Cl)C(Cl)=C(Cl)Cl", "Henry solubility constant Hcp": 0.0023}
{"Molecule": "CC=C(Cl)Cl", "Henry solubility constant Hcp": 0.00061}
{"Molecule": "[2H]c1c([2H])c([2H])c(C([2H])([2H])C([2H])([2H])[2H])c([2H])c1[2H]", "Henry solubility constant Hcp": 0.002}

Reference source: Sander's compilation of Henry's law constants (doi:10.1021/je3010535)
